Each item that follows carries a reported koff.
- ASSAY SYSTEM: T1, Recombinant SARS-CoV-2 N protein His tagged (SARS-CoV-2, UniProt P0DTC9 1-419)
- T1 construct: also called nucleocapsid (N) protein; recombinant HIS tagged SARS-CoV-2 N protein
- RUN DESCRIPTION: BLI (Octet Red 96E), mAb on anti-mouse Fc biosensor, N protein in solution, global 1:1 fit
READOUT NAME: koff (s⁻¹)

BINDER	UNIT INFO	RECORDED RESULT
SCT-Pa11 (antibody, mouse IgG1, kappa, V domains shown) VH: EVQLQQSGPELVKPGASVKMSCKASGYTFTSYVIHWVKQKPGQGLEWIGYINPYNDGTEYNEKFKGKATLTSDKSSSTAYMELSSLTSEDSAVYYCSRDDYNNRFAYWGPGTLVTVSA VL: DIQMTQSPASLSASVGETVTITCRPSENIYSYLAWYQQKQGKSPQLLVYNAKTLVEGVPSRFSGSGSGTQFSLKINSVQPEDCGSYYCLHHFGTPWTFGGGTILEIKR	s⁻¹	5.75e-05
SCT-Pa05 (antibody, mouse IgG1, kappa, V domains shown) VH: EVQLQQSGAELVKPGASVKLSCTTSGFNIKDYYFHWVKQRTEQGLEWIGRIDPEDGETEYAPKFRDKATITADTSSNTAYLQLSSLTSEDTAIYYCARSLYYWGQGTTLTVSS VL: DIVMTQSPSSLSVWAGEKVTMSCKSSQSLLNSGDQKNYLTWYQQKPGQSPKLLIYETSTRDYGVPDRFTGSGSGADFTLTISSVQAEDLAVYYCLNDLTYPLTFGAGTKLELKR	s⁻¹	0.00018

Hey, just so you know, these numbers are from patent US20240059762A1.
